experiment: Ferric reducing power assay (FRAP)
ASSAY METRIC: pIC50
Interpret pIC50 as the negative base-10 log of the concentration measured in mol/L.

Recorded results for 2 compounds are shown here.
{"columns": ["COMPOUND", "RECORDED MEASUREMENT"],
 "data": [
  ["CN1C(=O)CC2(C1=O)C(c1ccccc1)CN(C)C21c2ccccc2-c2nc3ccccc3nc21 (centres unmarked) [5a]", 4.77],
  ["CN1C(=O)CC2(C1=O)C(c1cccs1)CN(C)C21c2ccccc2-c2nc3ccccc3nc21 (centres unmarked) [5h]", 5.20]
]}

## Task Provide only the value of recorded pIC50 for CN1C(=O)CC2(C1=O)C(c1cc(Br)c(O)c(Br)c1)CN(C)C21c2ccccc2-c2nc3ccccc3nc21 (centres unmarked) [5m]
## Result 5.13

## Task Output pIC50 of CN1C(=O)CC2(C1=O)C(c1ccc(Cl)cc1)CN(C)C21c2ccccc2-c2nc3ccccc3nc21 (centres unmarked) [5e]
## Result 5.18

## Task Fill in pIC50 for record Cc1c(C)c2c(c(C)c1O)CCC(C)(C(=O)O)O2 (centres unmarked) [Trolox, reference compound]
## Result 4.38

## Task Give the measured pIC50 for CN1C(=O)CC2(C1=O)C(c1cccc(Cl)c1)CN(C)C21c2ccccc2-c2nc3ccccc3nc21 (centres unmarked) [5i]
## Result 5.22

## Task Give a short answer stating reported pIC50 for COc1ccccc1C1CN(C)C2(c3ccccc3-c3nc4ccccc4nc32)C12CC(=O)N(C)C2=O (centres unmarked) [5c] .
## Result 5.43

## Task Quote pIC50 reported for COc1ccc(C2CN(C)C3(c4ccccc4-c4nc5ccccc5nc43)C23CC(=O)N(C)C3=O)cc1Br (centres unmarked) [5k] please.
## Result 5.22

---

ASSAY METRIC: melting point

{"columns": ["COMPOUND", "ASSAY METRIC", "RECORDED MEASUREMENT"],
 "data": [
  ["CN1C(=O)CC2(C1=O)C(c1ccc(Cl)cc1)CN(C)C21c2ccccc2-c2nc3ccccc3nc21 (stereo not shown) [5e]", "melting point", "182 to 184 °C"],
  ["CN1C(=O)CC2(C1=O)C(c1cc(Br)c(O)c(Br)c1)CN(C)C21c2ccccc2-c2nc3ccccc3nc21 (stereo not shown) [5m]", "melting point", "214 to 216 °C"],
  ["CN1C(=O)CC2(C1=O)C(c1ccccc1)CN(C)C21c2ccccc2-c2nc3ccccc3nc21 (stereo not shown) [5a]", "melting point", "173 to 175 °C"],
  ["COc1ccccc1C1CN(C)C2(c3ccccc3-c3nc4ccccc4nc32)C12CC(=O)N(C)C2=O (stereo not shown) [5c]", "melting point", "196 to 198 °C"],
  ["CN1C(=O)CC2(C1=O)C(c1ccc(F)cc1)CN(C)C21c2ccccc2-c2nc3ccccc3nc21 (stereo not shown) [5g]", "melting point", "205 to 207 °C"]
]}

Turning to the following compound.
## Task Please give the documented melting point of CN1C(=O)CC2(C1=O)C(c1cccs1)CN(C)C21c2ccccc2-c2nc3ccccc3nc21 (stereo not shown) [5h]
## Result 203 to 205 °C

---

test system: Candida krusei ATCC 6258
Quick reference: log10 MIC of the listed items.
Log scale reminder: MIC in mM, then log10 taken.

Study these solved cases before continuing.
{"columns": ["MOLECULE", "log10 MIC"],
 "data": [
  ["CN1C(=O)CC2(C1=O)C(c1ccc(Br)cc1)CN(C)C21c2ccccc2-c2nc3ccccc3nc21 (stereo not drawn)", 1.76],
  ["C[C@@H]1[C@H](O)[C@@H](C)/C=C/C=C/C=C/C=C/C=C/C=C/C=C/[C@H](O[C@@H]2O[C@H](C)[C@@H](O)[C@H](N)[C@@H]2O)C[C@@H]2O[C@](O)(C[C@@H](O)C[C@@H](O)[C@H](O)CC[C@@H](O)C[C@@H](O)CC(=O)O[C@H]1C)C[C@H](O)[C@H]2C(=O)O [Amphotericin B, reference compound]", 0.73],
  ["COc1ccccc1C1CN(C)C2(c3ccccc3-c3nc4ccccc4nc32)C12CC(=O)N(C)C2=O (stereo not drawn)", 1.80],
  ["CN1C(=O)CC2(C1=O)C(c1ccc(Cl)cc1)CN(C)C21c2ccccc2-c2nc3ccccc3nc21 (stereo not drawn)", 1.50],
  ["Cc1ccc(C2CN(C)C3(c4ccccc4-c4nc5ccccc5nc43)C23CC(=O)N(C)C3=O)cc1 (stereo not drawn)", 1.82]
]}

Then this molecule:
## Task Given CN1C(=O)CC2(C1=O)C(c1cc(Br)c(O)c(Br)c1)CN(C)C21c2ccccc2-c2nc3ccccc3nc21 (stereo not drawn) , report its log10 MIC on Candida krusei ATCC 6258.
## Result 1.69

---

Measured log10(IC50) by item
assay: DPPH free radical scavenging activity; conditions: DPPH radical scavenging
Annotation: log10 of IC50, µM basis.

Below, 5 molecules whose answers are already recorded.
{"columns": ["MOLECULE", "log10(IC50)"],
 "data": [
  ["CN1C(=O)CC2(C1=O)C(c1ccc(Cl)cc1)CN(C)C21c2ccccc2-c2nc3ccccc3nc21 (centres unmarked) [5e]", 0.79],
  ["CN1C(=O)CC2(C1=O)C(c1ccc(O)c(Br)c1)CN(C)C21c2ccccc2-c2nc3ccccc3nc21 (centres unmarked) [5l]", 1.18],
  ["COc1ccc(C2CN(C)C3(c4ccccc4-c4nc5ccccc5nc43)C23CC(=O)N(C)C3=O)cc1 (centres unmarked) [5d]", 0.87],
  ["CN1C(=O)CC2(C1=O)C(c1ccc(Br)cc1)CN(C)C21c2ccccc2-c2nc3ccccc3nc21 (centres unmarked) [5f]", 1.21],
  ["CN1C(=O)CC2(C1=O)C(c1cc(Br)c(O)c(Br)c1)CN(C)C21c2ccccc2-c2nc3ccccc3nc21 (centres unmarked) [5m]", 1.67]
]}

## Task For the molecule CN1C(=O)CC2(C1=O)C(c1cccs1)CN(C)C21c2ccccc2-c2nc3ccccc3nc21 (centres unmarked) [5h] , give its measured log10(IC50) value.
## Result 1.28

## Task Could you please provide reported log10(IC50) for COc1ccc(C2CN(C)C3(c4ccccc4-c4nc5ccccc5nc43)C23CC(=O)N(C)C3=O)cc1Br (centres unmarked) [5k] ? Thanks!
## Result 2.09

## Task Give the reported value of log10(IC50) for this record: CN1C(=O)CC2(C1=O)C(c1ccccc1)CN(C)C21c2ccccc2-c2nc3ccccc3nc21 (centres unmarked) [5a]
## Result 1.19

## Task State its log10(IC50) for this molecule: COc1ccc(C2CN(C)C3(c4ccccc4-c4nc5ccccc5nc43)C23CC(=O)N(C)C3=O)cc1OC (centres unmarked) [5j]
## Result 1.28

---

# MIC per entry for Candida krusei ATCC 6258
Give the value in mM but do not write mM after it.

Use these answered entries as a reference point.
{"columns": ["MOLECULE", "QUANTITY UNIT", "MIC"],
 "data": [
  ["COc1ccc(C2CN(C)C3(c4ccccc4-c4nc5ccccc5nc43)C23CC(=O)N(C)C3=O)cc1 (centres unmarked)", "mM", 15.8],
  ["CN1C(=O)CC2(C1=O)C(c1ccccc1)CN(C)C21c2ccccc2-c2nc3ccccc3nc21 (centres unmarked)", "mM", 67.6],
  ["CN1C(=O)CC2(C1=O)C(c1cccs1)CN(C)C21c2ccccc2-c2nc3ccccc3nc21 (centres unmarked)", "mM", 66.7],
  ["CN1C(=O)CC2(C1=O)C(c1ccc(F)cc1)CN(C)C21c2ccccc2-c2nc3ccccc3nc21 (centres unmarked)", "mM", 32.5],
  ["CN1C(=O)CC2(C1=O)C(c1cccc(Cl)c1)CN(C)C21c2ccccc2-c2nc3ccccc3nc21 (centres unmarked)", "mM", 31.4],
  ["CN1C(=O)CC2(C1=O)C(c1ccc(O)c(Br)c1)CN(C)C21c2ccccc2-c2nc3ccccc3nc21 (centres unmarked)", "mM", 28],
  ["COc1ccc(C2CN(C)C3(c4ccccc4-c4nc5ccccc5nc43)C23CC(=O)N(C)C3=O)cc1Br (centres unmarked)", "mM", 54.7]
]}

As a next step, examine the molecule that follows.
## Task Provide MIC, recorded with Candida krusei ATCC 6258, of COc1ccc(C2CN(C)C3(c4ccccc4-c4nc5ccccc5nc43)C23CC(=O)N(C)C3=O)cc1OC (centres unmarked)
## Result 59.8

---

tested on: Candida albicans ATCC 90028; assay: Antifungal activity (MIC, MFC) against C. albicans; assay type: cell-based; conditions: Candida albicans, ATCC90028; C. albicans ATCC 90028; '-' = No activity
ASSAY METRIC: MFC (mM)
Numbers only here, please. The scale is mM.

Check out these entries, answers already filled in.
{"columns": ["COMPOUND", "MEASUREMENT TARGET", "RECORDED MEASUREMENT"],
 "data": [
  ["C[C@@H]1[C@H](O)[C@@H](C)/C=C/C=C/C=C/C=C/C=C/C=C/C=C/[C@H](O[C@@H]2O[C@H](C)[C@@H](O)[C@H](N)[C@@H]2O)C[C@@H]2O[C@](O)(C[C@@H](O)C[C@@H](O)[C@H](O)CC[C@@H](O)C[C@@H](O)CC(=O)O[C@H]1C)C[C@H](O)[C@H]2C(=O)O [Amphotericin B, reference compound]", "Candida albicans ATCC 90028", 5.41],
  ["CN1C(=O)CC2(C1=O)C(c1ccc(F)cc1)CN(C)C21c2ccccc2-c2nc3ccccc3nc21 (stereo not drawn)", "Candida albicans ATCC 90028", 65],
  ["COc1ccccc1C1CN(C)C2(c3ccccc3-c3nc4ccccc4nc32)C12CC(=O)N(C)C2=O (stereo not drawn)", "Candida albicans ATCC 90028", 63.4]
]}

## Task Give the measured MFC for CN1C(=O)CC2(C1=O)C(c1ccc(Cl)cc1)CN(C)C21c2ccccc2-c2nc3ccccc3nc21 (stereo not drawn)
## Result 62.9

## Task Annotate the compound CN1C(=O)CC2(C1=O)C(c1cc(Br)c(O)c(Br)c1)CN(C)C21c2ccccc2-c2nc3ccccc3nc21 (stereo not drawn) with its measured MFC.
## Result 98.2

## Task Return MFC (reported value) for this compound: CN1C(=O)CC2(C1=O)C(c1ccc(Br)cc1)CN(C)C21c2ccccc2-c2nc3ccccc3nc21 (stereo not drawn)
## Result 57.7
